Ref: ChEMBL document CHEMBL3507680

Experimental details: Human HepG2 cell viability assay in 384 well format
Type: toxicity, cell-based
Set-up: dose 125 nL, time 70.5 hour; concentration not given beside the values
Condition info: HepG2 cells, read-out: Inhibition
Parameter: cytotoxicity at 70.5 h (%)
Field: numeric (%). Do not append units.

Query :: Please give the measured cytotoxicity at 70.5 h for this compound: CCn1ccnc1C1CCN(Cc2c(F)cccc2F)CC1
Result :: 3.09

Query :: Note, next up: Cc1ccc(-c2cn[nH]c2C2CCCN(c3nccc(N)n3)C2)cc1 (configuration not stated)
Result :: -1.62

Query :: Note, next up: CN1CCOC(CNCc2nc(-c3ccccc3)cs2)C1 (configuration not stated)
Result :: 9.31

Query :: Note, next up: c1ccc(C(OCCNC2CCc3ncnn3C2)c2ccccc2)cc1 (configuration not stated)
Result :: -5.27

Query :: Note, next up: CC(C1CCN(Cc2cnn(C)c2C2CC2)CC1)N1CCCC1 (configuration not stated)
Result :: -7.31

Query :: Note, next up: c1ccc(Cc2noc(CN3CCOC(Cn4cncn4)C3)n2)cc1 (configuration not stated)
Result :: 12

Query :: Note, next up: O=C(O)Cn1nc(C2CC2)c2c(-c3ccco3)ccnc21
Result :: 30.2

Query :: Note, next up: CCN1CCCC(CNC(=O)CCc2ccc(OC)c(F)c2)C1 (configuration not stated)
Result :: -14.6

Query :: Note, next up: O=C(CCN1C(=O)CCC1=O)Nc1ccc(Cl)cc1
Result :: -1.6

Query :: Note, next up: CS(=O)(=O)NC[C@@H]1OC[C@H]2CN(Cc3ccsc3)CC[C@H]21
Result :: 18.6

Query :: Note, next up: Clc1ccc(-c2nc(CN3CCCC3Cn3cncn3)co2)cc1 (configuration not stated)
Result :: -1.1

Query :: Note, next up: CC(C)C1SCC(=O)Nc2c1cnn2-c1ccc(Cl)cc1 (configuration not stated)
Result :: -1.66

Query :: Note, next up: Cc1cnn(CC2CCCN2C(=O)c2cccc(S(C)(=O)=O)c2)c1 (configuration not stated)
Result :: -2.98

Query :: Note, next up: O=C(Cn1nc(Br)nc1Br)N1CCOCC1
Result :: 27.3

Query :: Note, next up: c1ccc(CN2CCc3ncnc(C4CCOC4)c3CC2)nc1 (configuration not stated)
Result :: -2.85

Query :: Note, next up: O=C(CN1CCS(=O)(=O)CC1)Nc1ccc(N2CCCC2)nc1
Result :: -5.27

Query :: Note, next up: COCCC(=O)N1CCC2(CC1)CC(c1ccccc1)CN(C)C2 (configuration not stated)
Result :: -5.14

Query :: Note, next up: CN(C)CC1(O)CCN(Cc2cnc3c(-c4ccccc4)cnn3c2)C1 (configuration not stated)
Result :: -4.22

Query :: Note, next up: O=C(N1CCCC1)N1CC[C@H]2[C@H]1CCN2c1ncccn1
Result :: -3.91

Query :: Note, next up: O=C(NCc1ccncc1)N(Cc1ccccc1F)C1CC1
Result :: 13

Query :: Note, next up: CCC(CC)(CNC(=O)NC1CCCC1(C)C)S(C)(=O)=O (configuration not stated)
Result :: -7.23

Query :: Note, next up: COCc1ncn2c1CN(C(=O)c1ccc3ccccc3n1)CC2
Result :: 6.36

Query :: Note, next up: CC(C)(O)CCc1cccc(C(=O)NCCC2CCOC2)c1 (configuration not stated)
Result :: -0.764

Query :: Note, next up: CC1c2cccn2CCN1S(=O)(=O)N1CCCCCC1 (configuration not stated)
Result :: -14.2

Query :: Note, next up: CCc1nc(CN(C)C2CCCN(c3cccnn3)C2)no1 (configuration not stated)
Result :: 16.7

Query :: Note, next up: CCOCc1cccc(S(=O)(=O)Nc2ccn(CC)n2)c1
Result :: -0.0962

Query :: Note, next up: CNC(=O)CN(C)C1CCN(c2ccc(Cl)cc2)CC1
Result :: 2.05

Query :: Note, next up: CCCc1cnc(C)nc1NC(C)Cc1cnccn1 (configuration not stated)
Result :: -5.97

Query :: Note, next up: CO[C@H]1CCN(c2ncc(F)cn2)[C@@H]2CN(Cc3ccco3)C[C@H]12
Result :: -6.95

Query :: Note, next up: Cc1nc(CNC(C(=O)N2CCOCC2)c2ccccc2)cs1 (configuration not stated)
Result :: -6.01

Query :: Note, next up: c1ccc(CO[C@H]2CN(c3ncccn3)C[C@@]23CCCO3)cc1
Result :: -11.5

Query :: Note, next up: CC[C@@H]1N(Cc2ccc(OC)cc2)CCC[C@]12CCC(=O)N2CCOC
Result :: 16.8

Query :: Note, next up: Cc1ccc(OCC2CCCN(c3cc(C(N)=O)ccn3)C2)cc1 (configuration not stated)
Result :: 4.54

Query :: Note, next up: Cc1ccc(-c2cc(C(F)(F)F)nc(N3CCOCC3)n2)s1
Result :: -11.3

Query :: Note, next up: CCC(NC(=O)c1cc(CC(C)C)nn1C)c1cccc(C)n1 (configuration not stated)
Result :: 8.39

Query :: Note, next up: CNc1cc(C)nc(C2CN(Cc3cc[nH]n3)CCO2)c1 (configuration not stated)
Result :: -7.87

Query :: Note, next up: COC(=O)N1CCC(CNS(=O)(=O)c2cnn(C)c2)CC1
Result :: -0.269

Query :: Note, next up: CC(C)c1nc2c(n1C)CCN(CCCOc1ccc(C#N)cc1)C2
Result :: 2.99

Query :: Note, next up: CCN1CCN(C(=O)c2ccc(Cn3ccccc3=O)o2)CC1
Result :: -9.18

Query :: Note, next up: CC(CNC(=O)c1cnc[nH]1)Oc1ccccc1Br (configuration not stated)
Result :: -15.7

Query :: Note, next up: CC(NC(=O)N1CCCC1)c1ccc(S(N)(=O)=O)cc1 (configuration not stated)
Result :: -13

Query :: Note, next up: Cc1cnn(CC2CCCN2C(=O)c2cccnc2-n2cncn2)c1 (configuration not stated)
Result :: -13.9

Query :: Note, next up: CNC(=O)[C@H]1C[C@H]2OCC[C@H]2N(Cc2cccc3ccccc23)C1
Result :: -6.96

Query :: Note, next up: O=C(c1ccoc1)N1CC[C@@H]2O[C@@H](COCCN3CCCC3)CC[C@@H]21
Result :: -12.6

Query :: Note, next up: CC(Cn1cccn1)n1cnc2cccc(F)c2c1=O (configuration not stated)
Result :: -7.35

Query :: Note, next up: Cc1nn(C)c(C)c1S(=O)(=O)NCC1(C(N)=O)CCOCC1
Result :: -11.5

Query :: Note, next up: Cc1cc(C)c(CNC(=O)CCC2CCCO2)c(=O)[nH]1 (configuration not stated)
Result :: -6.31

====

Experimental details: Human HepG2 cell viability dose-response assay
Type: toxicity, cell-based
Parameter: BOTTOM
Give the figure by itself; no unit, no explanation.

Query :: Please give the measured BOTTOM for this compound: O=C(C[C@@H]1COC[C@H]2CN(C3CCOCC3)C[C@@H]12)Nc1cnccn1
Result :: 0

Query :: Note, next up: COc1ccccc1N1CCN(C(=O)CSCC2CC2)C(C)C1 (centres undefined)
Result :: 0

Query :: Note, next up: CN(C(=O)[C@H]1CSCN1C(=O)OC(C)(C)C)C1CC1
Result :: 0

Query :: Note, next up: CC(C)n1ccc(C(=O)NCC(O)c2c(Cl)cccc2Cl)n1 (centres undefined)
Result :: 0

Query :: Note, next up: COC[C@H]1CCC[C@]12CN(Cc1cccc(C)n1)CCO2
Result :: 0

Query :: Note, next up: c1cncc(CN2CCCn3nnc(CN4CCCCC4)c3C2)c1
Result :: 0

Query :: Note, next up: COc1nn(C)c2c1CCCN(C(=O)c1ccc3c(c1)OCO3)C2.O=C(O)C(F)(F)F
Result :: 0

Query :: Note, next up: CC1(C)Cc2nc(C(C)(C)C)ncc2C(NC(=O)C2(N)CC2)C1 (centres undefined)
Result :: 0

Query :: Note, next up: CC(C)N(C)C(=O)c1ccc(CNc2ccncc2Cl)cc1
Result :: 0

====

Experimental details: Human HepG2 cell viability assay in 384 well format
Type: toxicity, cell-based
Set-up: dose 125 nL, time 70.5 hour; concentration not given beside the values
Condition info: HepG2 cells, read-out: Inhibition
Record form. Attribute: cytotoxicity at 70.5 h. Fill in for each entry.
Field: numeric (%). Do not append units.

Query :: Please give the measured cytotoxicity at 70.5 h for this molecule: CS(=O)(=O)N1CC2(CCN(C3CCCCC3)CC2)Cc2ccccc21
Result :: -7.63

Query :: Note, next up: Cc1cnn(CC2CN(Cc3nccn3C)CCO2)c1 (stereo not drawn)
Result :: -10.6

Query :: Note, next up: COc1ccc(N2CCN(C(=O)c3nc(Cl)sc3C(C)C)CC2)cc1
Result :: -18.9

Query :: Note, next up: CCOC(=O)N1CCN(C(=O)C2CC(=O)N(c3ccccc3Br)C2)CC1 (stereo not drawn)
Result :: -2.99

Query :: Note, next up: Cn1cc(N2CCCC(Nc3ccc4c(c3)CCCO4)C2=O)cn1 (stereo not drawn)
Result :: -0.945

Query :: Note, next up: Cc1nn(C)c(C)c1C1CCCN1C(=O)CCc1ccco1 (stereo not drawn)
Result :: -1.9

Query :: Note, next up: CCc1nc(CC(=O)N2CCC(C(=O)N3CCCC3)CC2)cs1
Result :: -9.83

Query :: Note, next up: O=C(CN1CCSCC1c1ccccc1)N1CCCC1 (stereo not drawn)
Result :: 20

Query :: Note, next up: CCc1cc(=O)n(CC(=O)NCC2CCCO2)c(-c2cccc(F)c2)n1 (stereo not drawn)
Result :: 2.39

Query :: Note, next up: CN(Cc1ccco1)C(=O)C1CSCN1C(=O)C1CCC1 (stereo not drawn)
Result :: -8.79

Query :: Note, next up: CC(C)c1noc(CN2CCN(C(=O)c3cccc(F)c3)CC2)n1
Result :: -8.17

Query :: Note, next up: c1cc(CN2C[C@@H]3OCCN(CCN4CCCC4)[C@@H]3C2)ccn1
Result :: -8.99

Query :: Note, next up: CC(N)C(=O)N1CCC(Oc2cccc(C(F)(F)F)c2)CC1 (stereo not drawn)
Result :: 11.5

Query :: Note, next up: Cc1cccc(C(=O)N2CCO[C@H]3[C@H](OCCN(C)C)CC[C@@H]32)n1
Result :: -3.76

Query :: Note, next up: CC(C)CCN1C[C@H]2C[C@H](C(=O)N3CCCC3)[C@@H](C1)O2
Result :: -5.2

Query :: Note, next up: O=S(=O)(NC1CC1)c1cccc(Br)c1
Result :: 3.01

Query :: Note, next up: O=C(CS(=O)(=O)Cc1ccccc1)NCc1ccccc1F
Result :: 22.1

Query :: Note, next up: Cc1cc(C)n(-c2ccc(N3CCCSCC3)nc2)n1
Result :: -0.674

Query :: Note, next up: OCCOc1ccc(NCc2cccc3cccnc23)cn1
Result :: 17.1

Query :: Note, next up: CCCc1cc(NCc2nc(COC)no2)n2nccc2n1
Result :: -0.144

Query :: Note, next up: COc1cccc(Cn2c(=O)n(C)c(=O)c3sccc32)c1
Result :: 0.75

Query :: Note, next up: CN(Cc1cc(Cl)ccc1Cl)Cc1ncnn1C
Result :: -1.99

Query :: Note, next up: CCc1nccn1-c1nccnc1C1CCN(C(=O)COC)CC1
Result :: 14.8

Query :: Note, next up: O=C1CC2(CCN(Cc3cccnc3)C2)CN1c1ccc2c(c1)OCO2 (stereo not drawn)
Result :: 12.8

Query :: Note, next up: Cc1nc(-c2nnc(SCC(=O)O)n2C(C)c2ccccc2)co1 (stereo not drawn)
Result :: -10

Query :: Note, next up: CCCn1ncc(C(=O)N2CCN(C3Cc4ccccc4C3)CC2)c1C
Result :: -0.105

Query :: Note, next up: N#Cc1nccnc1N1CCN(CCOCc2ccccc2)CC1
Result :: 16.9

Query :: Note, next up: Cc1ccc(C(=O)Nc2nnc(C3CC3)s2)c(-n2cnnn2)c1C
Result :: -14.4

Query :: Note, next up: Cn1cc(C(=O)Nc2ccc(CC(=O)NCC(F)(F)F)cc2)nn1
Result :: -6.55

Query :: Note, next up: CN1CCN(C2COC3(CCN(Cc4cccs4)CC3)C2)CC1 (stereo not drawn)
Result :: 4.27

Query :: Note, next up: COCc1nc(CN2CC(C)(c3ccccc3)CCC2=O)no1 (stereo not drawn)
Result :: -6.99

Query :: Note, next up: CC(C)c1nnc(NC(=O)CCc2cc(F)ccc2F)[nH]1
Result :: -16.3

Query :: Note, next up: Cn1cccc1C(=O)N1CC[C@H]2[C@H]1CCN2CC1CCOCC1
Result :: -0.0713

Query :: Note, next up: CCc1cnc(CN(C)C2CCN(CCc3ccccn3)C2)o1 (stereo not drawn)
Result :: 10.2

Query :: Note, next up: CCOc1ccc(C(=O)N2C[C@H]3CC[C@@H]2CN(C)C3)cc1OCC
Result :: -14.6

Query :: Note, next up: OC1CCN(c2cncc(CCC3CCCN3)n2)CC1 (stereo not drawn)
Result :: -4.54

Query :: Note, next up: O=C(O)c1cnc2c(cnn2C2CCCC2)c1
Result :: -0.534

Query :: Note, next up: CCS(=O)(=O)N1CCC(c2nc(C)c(C)c(N3CCCC3)n2)CC1
Result :: 2.09

Query :: Note, next up: Cc1cc(Cc2cccc(C(F)(F)F)c2)cc(C2CCCNC2)n1 (stereo not drawn)
Result :: 2.41

Query :: Note, next up: COCC1(NC(=O)C(c2ccc(F)cc2)N(C)C)CCCC1 (stereo not drawn)
Result :: 7.27

Query :: Note, next up: CCS(=O)(=O)CCN1CCN(C2CCC(C(C)C)CC2)CC1 (stereo not drawn)
Result :: 11.5

Query :: Note, next up: CCc1[nH]ncc1C(=O)N1CCCN(Cc2cnn(C)c2)CC1
Result :: -10.9

Query :: Note, next up: Cc1cc(NC(=O)NCC2(O)CCCC2)ccn1
Result :: -14

Query :: Note, next up: O=C(CN1CCCCCC1=O)NCC1CCN(c2ccccc2)C1 (stereo not drawn)
Result :: -5.56

Query :: Note, next up: OC1(CN2CCCCC2)CCN(c2ccc(C(F)(F)F)cn2)C1 (stereo not drawn)
Result :: -4.17

Query :: Note, next up: Cc1nc(CN2CCCC2Cn2cncn2)no1 (stereo not drawn)
Result :: 13.1

Query :: Note, next up: c1cncc(OC[C@@H]2CC[C@H]3[C@H](CCN3Cc3cccs3)O2)c1
Result :: -4.43

Query :: Note, next up: COc1ccc(-c2nnsc2C(=O)N2CCOCC2)cc1
Result :: -11.2
